Data credit: patent US20260232666A1

System: pERK in NCI-H358 cells
Experiment: Cell-based pERK HTRF assay (pERK inhibition in H358 cells)
Details: Homo sapiens, NCI-H358, 0.5 h, 30 min incubation
measured parameter: IC50

Consider the compound C=CC(=O)N1CC[C@@H](N(C)c2nc(OC[C@@H]3C[C@@H](F)CN3CC)nc3c(F)c(-c4ccc(F)c5sc(N)c(C#N)c45)c(C(F)(F)F)cc23)[C@H]1C and give its recorded IC50. < 100 nM

For the compound C=CC(=O)N1CC[C@@H](N(C)c2nc(OC[C@@]34CCCN3C[C@H](F)C4)nc3c(F)c(-c4ccc(F)c5sc(N)c(C#N)c45)c(C(F)(F)F)cc23)[C@H]1CC , report IC50. < 100 nM

Please indicate IC50 recorded for [2H]C1([2H])CN2C[C@H](F)C[C@]2(COc2nc(N(C)[C@@H]3CCN(C(=O)C=C)[C@@H]3C)c3cc(C(F)(F)F)c(-c4ccc(F)c5sc(N)c(C#N)c45)c(F)c3n2)C1 < 100 nM
